The values you see were collected from PubChem BioAssay AID1918994.

Catalogue of viability, T/C values
Test system: 292921-168-R-J2-PDC complex spheroid growth;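 also: spheroids exposed to compounds for seven days after three days of growth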
PROCEDURE TEXT: Anticancer human tumor 292921-168-R-J2-PDC patient-derived pancreatic carcinoma cell line growth inhibition [AhR]
CONDITION LABEL: second compound 3.16 µM; first compound 0.0316 µM; stronger effect = lower value
The reply should contain only the number, in %.

{"columns": ["MOLECULE", "TARGET OR TEST SYSTEM", "viability, T/C / %"],
 "data": [
  ["COc1cccc2c1C(=O)c1c(O)c3c(c(O)c1C2=O)CC(O)(C(=O)CO)CC3OC1CC(N)C(O)C(C)O1 (stereo not drawn) + Cc1cncc(-c2nc(NCCc3c[nH]c4ccccc34)c3ncn(C(C)C)c3n2)c1", "292921-168-R-J2-PDC complex spheroid growth", 26.8],
  ["COc1cccc2c1C(=O)c1c(O)c3c(c(O)c1C2=O)CC(O)(C(=O)CO)CC3OC1CC(N)C(O)C(C)O1 (stereo not drawn) + Cc1ccccc1N=Nc1ccc(NC(=O)c2ccnn2C)c(C)c1", "292921-168-R-J2-PDC complex spheroid growth", 19]
]}

Shift focus to the following entry.
Query: Quickly give me recorded viability, T/C for O=C(c1cc(Cc2n[nH]c(=O)c3ccccc23)ccc1F)N1CCN(C(=O)C2CC2)CC1 + Cc1ccccc1N=Nc1ccc(NC(=O)c2ccnn2C)c(C)c1
Reply: 69.2
